Assay: Monkey oral pharmacokinetic (PK) study, non-naïve Cynomolgus male monkeys
Format: in vivo
Conditions: male, cynomolgus monkey, plasma; oral, Dose 1
metric: bioavailability (%)
# value in %; strip the unit string

compound: N#Cc1ccc(COc2cccc(C3=CCN(Cc4nc5ccc(C(=O)O)cc5n4C[C@@H]4CCO4)CC3)n2)c(F)c1 [Compound 19]
endpoint unit: %
bioavailability: 10.8

In: Suppose we examine the compound O=C(O)c1ccc2nc(CN3CC=C(c4cccc(OCc5ccc(Cl)cc5F)c4)CC3)n(C[C@@H]3CCO3)c2c1 [Compound 28] ; what bioavailability value has been reported?
Out: 56.1

====

Target: GLP1R (Homo sapiens, UniProt P43220)
Sequence (P43220 24-463): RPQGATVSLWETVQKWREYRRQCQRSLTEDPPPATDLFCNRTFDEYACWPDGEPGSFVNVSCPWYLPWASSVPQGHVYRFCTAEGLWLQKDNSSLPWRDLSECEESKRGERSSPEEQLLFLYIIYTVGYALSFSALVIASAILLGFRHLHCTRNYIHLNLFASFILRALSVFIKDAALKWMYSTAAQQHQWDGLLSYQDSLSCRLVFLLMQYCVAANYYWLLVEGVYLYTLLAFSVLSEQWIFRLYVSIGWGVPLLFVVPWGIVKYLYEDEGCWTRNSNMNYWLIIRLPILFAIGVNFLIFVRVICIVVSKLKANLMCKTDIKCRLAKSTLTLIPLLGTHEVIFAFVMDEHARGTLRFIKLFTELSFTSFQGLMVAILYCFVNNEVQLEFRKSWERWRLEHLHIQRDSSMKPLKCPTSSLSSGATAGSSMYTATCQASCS
Assay: GLP1R cAMP HTRF assay, HEK293/GLP-1R/CRE/Luc (HEK293T cells)
Type: cell-based
Conditions: read-out: EC50
metric: EC50

molecule: O=C(O)c1ccc2nc(CN3CCN(c4cc(OCc5ccc(Cl)cc5F)c(F)cc4F)CC3)n(C[C@@H]3CCO3)c2c1 [Compound 188]
EC50: ≤ 150 nM

molecule: O=C(O)c1ccc2nc(CN3CC=C(c4cccc(OCc5ccccc5F)n4)CC3)n(C[C@@H]3CCO3)c2c1 [Compound 155]
EC50: ≤ 15 nM

molecule: C#Cc1ccc(COc2cccc(C3=CCN(Cc4nc5ccc(C(=O)O)cc5n4C[C@@H]4CCO4)CC3)n2)c(F)c1 [Compound 68]
EC50: ≤ 15 nM

molecule: O=C(O)c1ccc2nc(CN3CC=C(c4cccc(OCc5ccc(Cl)c(Cl)c5)n4)CC3)n(C[C@@H]3CCO3)c2c1 [Compound 115]
EC50: ≤ 15 nM

molecule: O=C(O)c1ccc2nc(CN3CC=C(c4nccc(OCc5ccc(Cl)cc5F)n4)CC3)n(C[C@@H]3CCO3)c2c1 [Compound 33]
EC50: ≤ 15 nM

In: Suppose we examine the molecule N#Cc1ccc(COc2cccc(C3=CCN(Cc4nc5ccc(C(=O)O)cc5n4C[C@@H]4CCO4)CC3)c2)c(F)c1 [Compound 175] ; what EC50 value has been reported?
Out: ≤ 15 nM

In: Suppose we examine the molecule O=C(O)c1ccc2nc(CN3CC=C(c4cccc(OCc5ccc(Cl)cc5F)c4F)CC3)n(C[C@@H]3CCO3)c2c1 [Compound 40] ; what EC50 value has been reported?
Out: ≤ 1000 nM

====

The reader will find reported EC50 values listed item by item below.
Molecular target: GLP1R (Homo sapiens)
Experiment: GLP1R cAMP HTRF assay, HEK293/GLP-1R/CRE/Luc (HEK293T cells)
Assay type: cell-based
Conditions: read-out: EC50

Use the examples below as a reference point.
compound: O=C(O)c1ccc2nc(CN3CC=C(c4ccnc(NCc5ccc(Cl)cc5F)n4)CC3)n(C[C@@H]3CCO3)c2c1
metric: EC50
result: ≤ 150 nM
--
compound: O=C(O)c1ccc2nc(CN3CC=C(c4cccc(OCc5cccc(Cl)c5)n4)CC3)n(C[C@@H]3CCO3)c2c1
metric: EC50
result: ≤ 1000 nM
--
compound: O=C(NO)c1ccc2nc(CN3CC=C(c4cccc(OCc5ccc(Cl)cc5F)n4)CC3)n(C[C@@H]3CCO3)c2c1
metric: EC50
result: ≤ 15 nM
--
compound: O=C(O)c1ccc2nc(CN3CC=C(c4cccc(OCc5c(Cl)cccc5Cl)n4)CC3)n(C[C@@H]3CCO3)c2c1
metric: EC50
result: ≤ 1000 nM
--
compound: O=C(O)c1ccc2nc(CC3CCN(c4cccc(OCc5ccc(Cl)cn5)n4)CC3)n(C[C@@H]3CCO3)c2n1
metric: EC50
result: ≤ 150 nM

Consider now this further compound.
In: Suppose we examine the compound O=C(O)c1ccc2nc(CN3CC=C(c4cc(F)cc(OCc5ccc(Cl)cc5F)c4)CC3)n(C[C@@H]3CCO3)c2c1 ; what EC50 value has been reported?
Out: ≤ 15 nM
